# systemTested: T1, CD8α Fc fusion protein (UniProt P01732 22-182, limits assumed)
# T1 construct: Used as the coating antigen of the ELISAs; also called CD8α antigen; CD8α protein; not shown: Fc part
# T1 sequence (P01732 22-182 limits assumed): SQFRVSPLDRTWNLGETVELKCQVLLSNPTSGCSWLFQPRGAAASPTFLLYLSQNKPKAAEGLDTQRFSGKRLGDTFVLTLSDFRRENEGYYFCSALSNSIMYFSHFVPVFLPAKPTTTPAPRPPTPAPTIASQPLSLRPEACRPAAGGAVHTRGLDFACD
# measurementProtocol: ELISA, plate coated with CD8α Fc fusion protein, anti-His-HRP detection, 4-parameter fit; relative to C37
Here, each record is paired with measured Relative activity (%) data.
Please give a number only; it is taken to be in %.

INSERT INTO measurements (binder, readoutkind, datavalue) VALUES
  ('C37-SA (histidine-tagged) (VHH, not shown: histidine tag) VHH: QLQLVESGGGLVQAGGSLRLSCAASGLTFEDYAIGWFRQAPGKEREGISCIRIYDGNTYSAESVKGRFTISSDNAKNQVYLQINSLKPEDTAVYYCAAGSYYSCSVYPAYDMDYWGKGTLVTVSS', 'Relative activity (%)', 257),
  ('C37-KL-QQ (histidine-tagged) (VHH, not shown: histidine tag) VHH: QLQLVESGGGLVQAGGSLRLSCAASGLTFEDYAIGWFRQAPGKEREGISCIRIYDGNTYSAESVKGRFTISSDNAKNQVYLQINTLKPEDTAVYYCAAGSYYSCSVYPDYDMDYWGQGTQVTVSS', 'Relative activity (%)', 141);

Req: Bench note: what Relative activity (%) did C37-D109A (histidine-tagged) (VHH, not shown: histidine tag) VHH: QLQLVESGGGLVQAGGSLRLSCAASGLTFEDYAIGWFRQAPGKEREGISCIRIYDGNTYSAESVKGRFTISSDNAKNQVYLQINTLKPEDTAVYYCAAGSYYSCSVYPAYDMDYWGKGTLVTVSS show?
Resp: 476

Req: What measured Relative activity (%) goes with C37-RA (histidine-tagged) (VHH, not shown: histidine tag) VHH: QLQLVESGGGLVQAGGSLRLSCAASGLTFEDYAIGWFRQAPGKEREGISCIRIYDGNTYSAESVKGRFTISRDNAKNQVYLQINTLKPEDTAVYYCAAGSYYSCSVYPAYDMDYWGKGTLVTVSS ?
Resp: 108

Data origin: patent US20240327517A1
